Test system β-hexosaminidase B (Homo sapiens, UniProt P07686), Ki listed for each of the molecules.
Please respond with the number in µM and leave the unit unwritten.

Use the examples below as a reference point.
>>> result("CCC(=O)N[C@H]1CN[C@H](CO)[C@@H](O)[C@@H]1O")
61
>>> result("CC(C)C(=O)N[C@H]1CN[C@H](CO)[C@@H](O)[C@@H]1O")
670

With those in mind, consider the next molecule.
In: Name the reported Ki value associated with the molecule `CCCC(=O)N[C@H]1CN[C@H](CO)[C@@H](O)[C@@H]1O`
Out: 1460

* * *

# TARGET UNDER TEST: NAGLU (Homo sapiens)
# Sequence (P54802 24-743): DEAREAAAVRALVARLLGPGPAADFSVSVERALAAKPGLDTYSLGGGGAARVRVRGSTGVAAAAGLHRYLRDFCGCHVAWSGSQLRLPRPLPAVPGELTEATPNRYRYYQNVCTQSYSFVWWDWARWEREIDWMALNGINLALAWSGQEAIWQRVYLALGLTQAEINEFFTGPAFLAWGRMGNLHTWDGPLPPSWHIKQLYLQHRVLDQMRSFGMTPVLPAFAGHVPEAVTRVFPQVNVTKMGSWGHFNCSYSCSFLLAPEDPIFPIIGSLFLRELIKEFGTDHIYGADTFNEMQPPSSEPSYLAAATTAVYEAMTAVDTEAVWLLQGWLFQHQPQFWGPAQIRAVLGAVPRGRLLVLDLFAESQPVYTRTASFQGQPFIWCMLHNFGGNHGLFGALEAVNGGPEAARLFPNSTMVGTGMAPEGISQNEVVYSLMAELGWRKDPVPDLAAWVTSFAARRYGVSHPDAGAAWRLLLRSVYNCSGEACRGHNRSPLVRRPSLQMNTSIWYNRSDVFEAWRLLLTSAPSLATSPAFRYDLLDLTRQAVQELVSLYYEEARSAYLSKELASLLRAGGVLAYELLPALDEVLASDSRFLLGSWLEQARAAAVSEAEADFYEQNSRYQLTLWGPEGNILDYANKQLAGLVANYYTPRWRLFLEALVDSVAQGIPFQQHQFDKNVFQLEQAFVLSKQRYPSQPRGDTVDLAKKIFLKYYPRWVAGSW
# PROCEDURE TEXT: Kinetic analysis of inhibitors against NAGLU
# Format: biochemical
Items are presented alongside their recorded Ki.

Use the examples below as a reference point.
>>> result("CC(C)C(=O)N[C@H]1CN[C@H](CO)[C@@H](O)[C@@H]1O")
"800 µM"
>>> result("CCCCC(=O)N[C@H]1CN[C@H](CO)[C@@H](O)[C@@H]1O")
"> 1000 µM"
>>> result("CCC(=O)N[C@H]1CN[C@H](CO)[C@@H](O)[C@@H]1O")
"96 µM"
>>> result("CC(C)CC(=O)N[C@H]1CN[C@H](CO)[C@@H](O)[C@@H]1O")
"> 1000 µM"
>>> result("CCCCCC(=O)N[C@H]1CN[C@H](CO)[C@@H](O)[C@@H]1O")
"> 1000 µM"

With those in mind, consider the next compound.
In: Lab request: please report Ki under test system NAGLU (Homo sapiens) for `CCCC(=O)N[C@H]1CN[C@H](CO)[C@@H](O)[C@@H]1O`
Out: > 1000 µM
